Value source: the Immune Epitope Database (IEDB)

molecular target: HLA-A*02:03; assay: IEDB peptide-MHC binding, purified MHC/competitive/radioactivity; filed as Kd, often an IC50 or EC50 that approximates it; bounds were set here for any values at or beyond the usual limits of such assays; conditions: source organism: Vaccinia virus WR
Quick reference: Kd of the listed items.

Would you please look over these solved cases?
- sequence_entry: "IAGIILLIL"
  Kd: "≥ 52.9 µM"
- sequence_entry: "PANINDKQIM"
  Kd: "≥ 43.1 µM"

Now examine the next entry.
*Q* Kindly indicate its recorded Kd. Item: LIISTDQDT
*A* ≥ 78.1 µM
